Assay: Pharmacokinetic test in rats
Assay type: in vivo
Settings: rat, plasma, 5 mg/kg; SD rats, PO @5mpk
Description: In this example, the pharmacokinetic behavior of the compounds after intravenous injection (IV) and intragastric (PO) administration in SD rats was tested. On the day of administration, rats were weighed for actual body weight and the administration volume was calculated. […] Plasma concentrations were determined by the LC-MS/MS method. […] The relevant pharmacokinetic parameters were calculated by a linear-log trapezoidal method.
measured.attribute: Cmax (nM)
Quick note: give the figure in nM, leave out the unit.

> print(dat)
                                test.smiles  result.value
1  O=C(Nc1cc2ccccc2c(N2CCC(F)(F)CC2)n1)c1ccc(NS(=O)(=O)CCO)cc1N1CCC2(CC1)CC2           509
2  O=C(Nc1cn2ccnc2c(N2CCOCC2)n1)c1ccc(NS(=O)(=O)CCO)cc1N1CCC2(CC1)CC2           217
3  O=C(Nc1cc2c(c(N3CCC(F)(F)CC3)n1)COC2)c1ccc(NS(=O)(=O)CCO)cc1N1CCC2(CC1)CC2           351

Okay, now this compound:
## Input I am curious: what Cmax value has been reported for `O=C(Nc1cc2ccsc2c(N2CCC(F)(F)CC2)n1)c1ccc(NS(=O)(=O)CCO)cc1N1CCC2(CC1)CC2` ?
## Output 540

These data points were gathered from patent US20250382298A1.
